Data origin, for the record: the supplement of paper PMC10567573

B1: TPRG1 (parent)
chain: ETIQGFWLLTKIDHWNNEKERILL

- Variants of: B1
- assay-procedure: protein stability index of a GFP-peptide fusion (GPS, HEK-293T) (PSI 1-6); higher = more stable;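 also: lentivirally expressed fusions sorted by FACS into six bins by GFP to DsRed ratio, PSI derived from sequencing read proportions per bin multiplied by bin number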
- measurement-context: c terminus: a fixed tail appended
Use T when the recorded protein stability index is no lower than 2; use F when it is lower.

biopolymer-sequence	label-class
ETIQGFWLLTKIDRWNNEKERILL [H14R]	T
ETIQGFWLLTKIDHWNNEQERILL [K19Q]	F
EYIQGFWLLTKIDHWNNEKERILL [T2Y]	T
ETIQGFWLLTKIDHRNNEKERILL [W15R]	T
ETCQGFWLLTKIDHWNNEKERILL [I3C]	T
ETIQGFWLETKIDHWNNEKERILL [L9E]	T
ETIQGFWLTTKIDHWNNEKERILL [L9T]	F
ETIQGFWLLTKIDHWNNEKEHILL [R21H]	T
ETIQGFWLQTKIDHWNNEKERILL [L9Q]	F
ETIQGFWLLTKTDHWNNEKERILL [I12T]	F
ETIQGFWLLTKIDHWNNEKEEILL [R21E]	T
ETIQGFWLLTKIDHWSNEKERILL [N16S]	T
ETIQGFWLLTRIDHWNNEKERILL [K11R]	F
ETIQGFWLLTKIDHCNNEKERILL [W15C]	F
ETIQWFWLLTKIDHWNNEKERILL [G5W]	T
ETIQGFWLSTKIDHWNNEKERILL [L9S]	T
ETIQGTWLLTKIDHWNNEKERILL [F6T]	T
ETIMGFWLLTKIDHWNNEKERILL [Q4M]	T
ETIQGFWLFTKIDHWNNEKERILL [L9F]	T
EEIQGFWLLTKIDHWNNEKERILL [T2E]	T
ETIQGFWLLTKIDHWNNEKQRILL [E20Q]	T
ETIQGFWLLNKIDHWNNEKERILL [T10N]	F
ETIQGFWLLPKIDHWNNEKERILL [T10P]	F
ETIQGFWYLTKIDHWNNEKERILL [L8Y]	T
ETIQGQWLLTKIDHWNNEKERILL [F6Q]	F
PTIQGFWLLTKIDHWNNEKERILL [E1P]	T
ETIQGFWLLTKIDHINNEKERILL [W15I]	F
ETIQGFWLLTKIDHVNNEKERILL [W15V]	T
ETIQGFCLLTKIDHWNNEKERILL [W7C]	T
ETIQGFWGLTKIDHWNNEKERILL [L8G]	F
ETIQGFWLLRKIDHWNNEKERILL [T10R]	F
ETIQGFWLLTDIDHWNNEKERILL [K11D]	F
ETIQGFWLLTKIDHWNNEKEIILL [R21I]	T
